System: SEM cells
test-name: cell viability relative to DMSO control; higher = less cytotoxic
measurement-parameters: RPMI 5 mM glucose + 10% dialyzed FBS; 48 h; 0.19 µM
# cell viability values compiled below
assay-metric: cell viability (%)

CCOC(=O)c1c(CSc2ccccc2)n(C)c2cc(Br)c(O)c(CN(C)C)c12
97.5
CCN(CC)CCCC(C)Nc1ccnc2cc(Cl)ccc12 (stereo not drawn)
115
OC1=C(Cl)C=C(N\C2=C(\C(=O)NC2=O)C3=C(C=CC=C3)[N+]([O-])=O)C=C1
98.9
Cc1nnc(C(C)C)n1[C@@H]1C[C@H]2CC[C@@H](C1)N2CC[C@H](NC(=O)C1CCC(F)(F)CC1)c1ccccc1
103
CC(C)(C)NCC(O)c1ccc(O)c(CO)c1 (stereo not drawn)
114
Cc1cc(/C=c2/sc3nc4ccccc4n3c2=O)c(C)n1-c1ccccc1
122
CCC(=O)N1CCN(CC1)C2=C(C=C(C=C2)N3C(=O)\C=C/C4=C3C5=CC(=CC=C5N=C4)C6=CN=C7C=CC=CC7=C6)C(F)(F)F
62.7
Nc1cc(N2CCCCC2)nc(N)[n+]1[O-]
129
CCC[C@H](Nc1nc(-c2ccc(NC(=O)NCC)c(OC)c2)ncc1C)c1cccnc1
23.7
CCN1\C=C(C(O)=O)/C(=O)C2=C1C(=C(N3CCNC(C)C3)C(=C2)F)F (stereo not drawn)
107
COc1cc2cc(c1Cl)N(C)C(=O)C[C@H](OC(=O)C(C)C)[C@]1(C)O[C@@H]1[C@H](C)[C@@H]1C[C@@](O)(NC(=O)O1)[C@H](OC)/C=C/C=C(\C)C2
5.55
COc1cccc(OC)c1-c1cc(C(=O)NC2(C(=O)O)C3CC4CC(C3)CC2C4)nn1-c1ccnc2cc(Cl)ccc12 (stereo not drawn)
119
CC1(C)[C@@H](O)CC[C@@]2(C)[C@H]1CC[C@]3(C)[C@@H]2C(=O)\C=C/4[C@@H]5C[C@](C)(CC[C@]5(C)CC[C@@]34C)C(O)=O
108
Cc1cnc(Nc2cccc(CN3CCOCC3)c2)nc1Nc1cccc([S+](=O)([O-])NC(C)(C)C)c1
64
CC(O)(C[S+](=O)([O-])c1ccc(F)cc1)C(=O)Nc1ccc(C#N)c(C(F)(F)F)c1 (stereo not drawn)
102
N#CC1(c2cccc(C(=O)Nc3cc(Oc4ccc5nc(NC(=O)C6CC6)sc5n4)ccc3F)c2Cl)CC1
102
N#Cc1c(N(CC(=O)[O-])CC(=O)[O-])sc(C(=O)[O-])c1CC(=O)[O-].O.O.O.O.O.O.O.[Sr+2].[Sr+2]
131
C[C@]12CC[C@H]3[C@@H](CC[C@@]45O[C@@H]4C(O)=C(C#N)C[C@]35C)[C@@H]1CC[C@@H]2O
102

* * *

Test system: P12-Ichikawa
test-name: cell viability relative to DMSO control; higher = less cytotoxic
measurement-parameters: RPMI 5 mM glucose + 10% FBS; 48 h; 0.00234 µM
Each entry below carries its reported cell viability.
assay-metric: cell viability

CN(CC(=O)N(Cc1ccc(C2CCCCC2)cc1)c1ccc(C(=O)O)c(O)c1)[S+](=O)([O-])c1c(F)c(F)c(F)c(F)c1F
100%
CCCCCN(C)CCC(O)(P(=O)([O-])O)P(=O)(O)O
86.5%
NC(=O)N1CCC(CC(=O)N2CCC([C@H]3c4ncc(Br)cc4CCc4cc(Cl)cc(Br)c43)CC2)CC1
104%
Clc1ccc(C(c2ccc(Cl)cc2)[n+]2ccn(CC(OCc3ccc(Cl)cc3Cl)c3ccc(Cl)cc3Cl)c2)cc1 (centres undefined)
113%

Attribution: the supplement of paper PMC11451515
